All figures here come from patent US6780995B2.

# Test system: A549 cells
# Protocol: IC50 assay, inhibition of cell proliferation and growth, A549
# Format: cell-based, human
# Particulars: Homo sapiens; A549 bronchogenic cell line; neutral red or crystal violet; read-out: IC50 Concentrations, A 549
Outcome measure: pIC50
Give bare numbers, as −log10 of the molar value.

[
  {
    "Compound": "C=CCNC(=O)c1cc([N+](=O)[O-])ccc1I [Ref. No. 7, N-(Allyl)-2-Iodo-5-Nitro-Benzamide]",
    "Tested system": "A549 cells",
    "pIC50": 3.87
  }
]

Report pIC50 for every entry below.
1. Cc1ccc(-c2csc(NC(=O)c3cc([N+](=O)[O-])ccc3I)n2)cc1
2. O=C(Nc1nccs1)c1cc([N+](=O)[O-])ccc1I

Result:
3.79
4.31

* * *

# Tested on: SK-MEL-5 cells
# Protocol: IC50 assay, inhibition of cell proliferation and growth, SK-MEL-5
# Assay type: cell-based, human
# Particulars: Homo sapiens; SK-MEL-5 melanoma cell line; neutral red or crystal violet; read-out: IC50 Concentrations, SK MEL-5
Recorded IC50 determines the group label, using Low = under 40 µM, Mid = from 40 µM up to 90 µM, High = 90 µM and over

Study these solved cases before continuing.
[
  {
    "Compound": "C=C(C)c1ccccc1NC(=O)c1cc([N+](=O)[O-])ccc1I [Ref. No. 9]",
    "Assigned category": "High"
  },
  {
    "Compound": "O=C(Nc1ccc2ccc(=O)oc2c1)c1cc([N+](=O)[O-])ccc1I [Ref. No. 4]",
    "Assigned category": "High"
  },
  {
    "Compound": "Cc1csc(NC(=O)c2cc([N+](=O)[O-])ccc2I)n1 [Ref. No. 21]",
    "Assigned category": "Low"
  }
]

Q: Band assignment needed for Cc1ccc(-c2csc(NC(=O)c3cc([N+](=O)[O-])ccc3I)n2)cc1 [Ref. No. 19] please.
Result: Mid

Q: Next compound up: O=C(Nc1nnc(C(F)(F)F)s1)c1cc([N+](=O)[O-])ccc1I [Ref. No. 18]
Result: Low

Q: Next compound up: NC(=O)c1cc([N+](=O)[O-])ccc1I [Ref. No. 15, 2-Iodo-5-Nitro-Benzamide]
Result: High

* * *

Record form. Attribute: pIC50. Fill in for each entry.
# Test system: A549 cells
# Protocol: IC50 assay, inhibition of cell proliferation and growth, A549
# Assay type: cell-based, human
# Particulars: Homo sapiens, A549, read-out: IC50 Concentrations, A 549
# Procedure: Cell culture: The human cell lines were propagated under sterile conditions in RPMI 1640 (CellGrow) with 10% fetal bovine serum (Hyclone), 2 mM L-glutamine, and sodium bicarbonate (complete medium) and incubated at 37° C. in HEPA-filtered Sterilcult CO2 tissue culture incubators (Forma) with 5% CO^2 and 95% humidity (Table 1). […] Anticellular effects of the compounds for the adherent cell lines were assessed with neutral red dye. […]
One number for each entry, as −log10 of the molar value.

Observe how each entry below is paired with its result.
[
  {
    "Smiles structure": "Cc1csc(N(C(=O)c2cc([N+](=O)[O-])ccc2I)C(=O)c2cc([N+](=O)[O-])ccc2I)n1",
    "pIC50": 4.32
  },
  {
    "Smiles structure": "O=C(c1cc([N+](=O)[O-])ccc1I)N(C(=O)c1cc([N+](=O)[O-])ccc1I)C1=NCCS1",
    "pIC50": 3.90
  },
  {
    "Smiles structure": "CCN(CC)CCNC(=O)c1cc([N+](=O)[O-])ccc1I",
    "pIC50": 3.48
  },
  {
    "Smiles structure": "O=C(Nc1ccc2c(C(F)(F)F)cc(=O)oc2c1)c1cc([N+](=O)[O-])ccc1I",
    "pIC50": 3.44
  },
  {
    "Smiles structure": "O=C(Nc1ncc([N+](=O)[O-])s1)c1cc([N+](=O)[O-])ccc1I",
    "pIC50": 4.06
  }
]

Now look at this one.
Q: Return reported pIC50; argument: CN(C)CCNC(=O)c1cc([N+](=O)[O-])ccc1I
Result: 3.48

* * *

Record form. Attribute: melting point. Fill in for each entry.

Observe how each entry below is paired with its result.
[
  {
    "Molecule": "O=C(NC1=NCCS1)c1cc([N+](=O)[O-])ccc1I [Ref. No. 23]",
    "melting point": "176 to 179 °C"
  },
  {
    "Molecule": "C=C(C)c1ccccc1NC(=O)c1cc([N+](=O)[O-])ccc1I [Ref. No. 9]",
    "melting point": "155 to 158 °C"
  }
]

Report melting point for every entry below.
1. Cc1ccc(-c2csc(NC(=O)c3cc([N+](=O)[O-])ccc3I)n2)cc1 [Ref. No. 19]
2. CCOC(=O)c1sc(NC(=O)c2cc([N+](=O)[O-])ccc2I)nc1C [Ref. No. 16]
3. O=C(Nc1nccs1)c1cc([N+](=O)[O-])ccc1I [Ref. No. 5, 2-(2′-Iodo-5′-Nitro-Benzamido)-Thiazole]
4. O=C(Nc1nnc(C(F)(F)F)s1)c1cc([N+](=O)[O-])ccc1I [Ref. No. 18]
5. O=C(Nc1ccc2c(C(F)(F)F)cc(=O)oc2c1)c1cc([N+](=O)[O-])ccc1I [Ref. No. 3]
6. CN(C)CCNC(=O)c1cc([N+](=O)[O-])ccc1I [Ref. No. 1]
7. O=C(Nc1ccc2ccc(=O)oc2c1)c1cc([N+](=O)[O-])ccc1I [Ref. No. 4]
8. CCN(CC)CCNC(=O)c1cc([N+](=O)[O-])ccc1I [Ref. No. 2]

Result:
244 to 248 °C
211 to 212 °C
210 to 213 °C
219 to 221 °C
223 to 227 °C
126 to 128 °C
273 to 277 °C
124 to 126 °C

Report melting point for every entry below.
1. C=CCNC(=O)c1cc([N+](=O)[O-])ccc1I [Ref. No. 7, N-(Allyl)-2-Iodo-5-Nitro-Benzamide]
2. O=C(Nc1ncc([N+](=O)[O-])s1)c1cc([N+](=O)[O-])ccc1I [Ref. No. 6]
3. NC(=O)c1cc([N+](=O)[O-])ccc1I [Ref. No. 15, 2-Iodo-5-Nitro-Benzamide]
4. C#CCNC(=O)c1cc([N+](=O)[O-])ccc1I [Ref. No. 8, N-(Propargyl) 2-Iodo-5-Nitro-Benzamide]

Result:
1: 155 to 158 °C; 2: 230 to 234 °C; 3: 260 to 264 °C; 4: 204 to 206 °C

* * *

Record form. Attribute: pIC50. Fill in for each entry.
# Tested on: A549 cells
# Protocol: IC50 assay, inhibition of cell proliferation and growth, A549
# Assay type: cell-based, human
# Particulars: Homo sapiens; A549 bronchogenic cell line; neutral red or crystal violet; read-out: IC50 Concentrations, A 549
Answers are plain numbers, as −log10 of the molar value.

Observe how each entry below is paired with its result.
[
  {
    "Compound": "Cc1cnc(NC(=O)c2cc([N+](=O)[O-])ccc2I)s1 [Ref. No. 22]",
    "Tested system": "A549 cells",
    "Outcome measure": "pIC50",
    "Recorded result": 4.34
  },
  {
    "Compound": "C#CCNC(=O)c1cc([N+](=O)[O-])ccc1I [Ref. No. 8, N-(Propargyl) 2-Iodo-5-Nitro-Benzamide]",
    "Tested system": "A549 cells",
    "Outcome measure": "pIC50",
    "Recorded result": 4.33
  },
  {
    "Compound": "CCOC(=O)c1sc(NC(=O)c2cc([N+](=O)[O-])ccc2I)nc1C [Ref. No. 16]",
    "Tested system": "A549 cells",
    "Outcome measure": "pIC50",
    "Recorded result": 4.52
  },
  {
    "Compound": "O=C(Nc1nnc(C(F)(F)F)s1)c1cc([N+](=O)[O-])ccc1I [Ref. No. 18]",
    "Tested system": "A549 cells",
    "Outcome measure": "pIC50",
    "Recorded result": 4.80
  },
  {
    "Compound": "NC(=O)c1cc([N+](=O)[O-])ccc1I [Ref. No. 15, 2-Iodo-5-Nitro-Benzamide]",
    "Tested system": "A549 cells",
    "Outcome measure": "pIC50",
    "Recorded result": 4.43
  }
]

Now look at this one.
Q: Provide value of pIC50 for this record tested with A549 cells: Cc1csc(NC(=O)c2cc([N+](=O)[O-])ccc2I)n1 [Ref. No. 21]
Result: 4.36

* * *

Record form. Attribute: IC50. Fill in for each entry.
# Test system: COLO 205 cells
# Protocol: IC50 assay, inhibition of cell proliferation and growth, COLO 205
# Assay type: cell-based, human
# Particulars: Homo sapiens; COLO 205 colon adenocarcinoma cell line; neutral red or crystal violet; read-out: IC50 Concentrations, COLO 205
# Experimental: Cell culture: The human cell lines were propagated under sterile conditions in RPMI 1640 (CellGrow) with 10% fetal bovine serum (Hyclone), 2 mM L-glutamine, and sodium bicarbonate (complete medium) and incubated at 37° C. in HEPA-filtered Sterilcult CO2 tissue culture incubators (Forma) with 5% CO^2 and 95% humidity (Table 1). […] Anticellular effects of the compounds for the adherent cell lines were assessed with neutral red dye. […]
Numbers only, in µM.

[
  {
    "Compound": "C=CCNC(=O)c1cc([N+](=O)[O-])ccc1I [Ref. No. 7, N-(Allyl)-2-Iodo-5-Nitro-Benzamide]",
    "Recorded result": 38.5
  },
  {
    "Compound": "C#CCNC(=O)c1cc([N+](=O)[O-])ccc1I [Ref. No. 8, N-(Propargyl) 2-Iodo-5-Nitro-Benzamide]",
    "Recorded result": 30.6
  }
]

Now look at this one.
Q: Return reported IC50; argument: O=C(Nc1nnc(C(F)(F)F)s1)c1cc([N+](=O)[O-])ccc1I
Result: 41.3
